All values here come from the supplement of paper PMC6335503.

Below: a set of entries, each annotated with reported cell viability.
system: DFTD cell line T2 (05/2569); assay: cell viability, percent of DMSO control (CellTiter-Glo); higher = more viable cells; conditions: 0.0185 µM; 72 h
Please make sure the unit comes right after the number.

Sample records with cell viability:
Lab book: cell viability of CN(C)C/C=C/C(=O)Nc1cc2c(Nc3ccc(F)c(Cl)c3)ncnc2cc1O[C@H]1CCOC1 noted as 89.2%

Short answer for CC#CC(=O)Nc1ccc2ncnc(Nc3cccc(Br)c3)c2c1 : cell viability was 85%

For CS(=O)(=O)CCNCc1ccc(-c2ccc3ncnc(Nc4ccc(OCc5cccc(F)c5)c(Cl)c4)c3c2)o1.Cc1ccc(S(=O)(=O)O)cc1 the compound record lists cell viability as 114%

Looking up CCOc1cc2ncc(C#N)c(Nc3ccc(F)c(Cl)c3)c2cc1NC(=O)/C=C/CN(C)C [Pelitinib (EKB-569)] , I see its cell viability listed as 121%

Sample COc1cc2ncnc(Nc3cccc(Cl)c3)c2cc1OC ; cell viability observed: 105%

Entry COc1cccc2c1C(=O)c1c(O)c3c(c(O)c1C2=O)C[C@@](O)(C(=O)CO)C[C@@H]3O[C@H]1C[C@H](N)[C@H](O)[C@H](C)O1 ; cell viability = 98.7%

Lab note: measured cell viability of C=CC(=O)N1CCC[C@@H](n2nc(-c3ccc(Oc4ccccc4)cc3)c3c(N)ncnc32)C1 was 124%

O=c1c(=NNc2nnn[nH]2)c(=O)c2ccccc12 yielded cell viability of 133%

New cases:
Entry under test: C=CC(=O)Nc1cc2c(Nc3ccc(F)c(Cl)c3)ncnc2cc1OCCCN1CCOCC1 . Its cell viability was 106%

Field cell viability (entry COc1cccc2c1C(=O)c1c(O)c3c(c(O)c1C2=O)C[C@@](O)(C(=O)CO)C[C@@H]3O[C@H]1C[C@H](N)[C@@H](O)[C@H](C)O1.Cl ) reads 105%

Summary for this compound, CNC(=O)CN1CCC(Oc2cc3c(Nc4cccc(Cl)c4F)ncnc3cc2OC)CC1 [AZD8931 (Sapitinib)] : cell viability is 111%

* * *

test system: DFTD cell line T3 (06/0368); assay: cell viability, percent of DMSO control (CellTiter-Glo); higher = more viable cells; conditions: 0.0185 µM; 72 h
Below, each entry is listed with its recorded cell viability.
Numbers only; they are read as %.

The following compounds have reported results that may help.
Looking up COc1cc2ncnc(Nc3ccc(O)c(Br)c3)c2cc1OC [WHI-P154] , I found its cell viability recorded as 125

Query C=CC(=O)Nc1cccc(Nc2nc(Nc3ccc(N4CCN(C(C)=O)CC4)cc3OC)ncc2C(F)(F)F)c1 [Rociletinib (CO-1686, AVL-301)] yields cell viability of 113

The compound listed as CCOc1cc2ncc(C#N)c(Nc3ccc(OCc4ccccn4)c(Cl)c3)c2cc1NC(=O)/C=C/CN(C)C [Neratinib(HKI-272)] has a reported cell viability of 102

Now, please, on to the next compound.
The value of cell viability measured for the compound C=CC(=O)N1CCC[C@@H](n2nc(-c3ccc(Oc4ccccc4)cc3)c3c(N)ncnc32)C1 turned out to be 94.2

* * *

cell viability values by entry
system: DFTD cell line T4 (07/0192); assay: cell viability, percent of DMSO control (CellTiter-Glo); higher = more viable cells; conditions: 13.5 µM; 72 h
Only the number, expressed in %, is required.

Reported cell viability of CS(=O)(=O)CCNCc1ccc(-c2ccc3ncnc(Nc4ccc(OCc5cccc(F)c5)c(Cl)c4)c3c2)o1.Cc1ccc(S(=O)(=O)O)cc1.Cc1ccc(S(=O)(=O)O)cc1.O [Lapatinib ditosylate monohydrate] : 24.5

Item: O=c1c(=NNc2nnn[nH]2)c(=O)c2ccccc12 | cell viability: -9.39

Okay, now this compound:
// cell viability value for COc1cccc2c1C(=O)c1c(O)c3c(c(O)c1C2=O)C[C@@](O)(C(=O)CO)C[C@@H]3O[C@H]1C[C@H](N)[C@H](O)[C@H](C)O1.Cl : 1.84
